Species on record: Rattus norvegicus
ASSAY: Open TG-GATES - Regimen: Daily Repeat
Assay type: toxicity, organism-based, Sprague-Dawley
Parameters: regimen Daily Repeat, gender Male, age 6 weeks
TEST_CONTEXT: in vivo, po, 0 mg/kg, 72 h, tissue Plasma, route gavage, dose level Control, time 3 day
The reader will find reported CRE values listed item by item below.
Answer with the number, then the unit.

Below, each entry is followed by its recorded CRE result.
# MOLECULE, MEASUREMENT_TYPE, OBSERVED_MEASUREMENT
data = [
    ("CCN(CC)N=O", "CRE", "0.4 mg/dL"),
    ("CC(C)Cc1ccc(C(C)C(=O)O)cc1 (stereo not drawn)", "CRE", "0.2 mg/dL"),
    ("CC(CCc1ccccc1)NCC(O)c1ccc(O)c(C(N)=O)c1 (stereo not drawn)", "CRE", "0.2 mg/dL"),
]

For the molecule CC(N)=O [ACETAMIDE] , what CRE is on record?
0.1 mg/dL

Using the record for O=C(O)COc1nn(Cc2ccccc2)c2ccccc12 , report its CRE.
0.5 mg/dL

For the molecule shown here, CC[C@@H](CO)NCCN[C@@H](CC)CO , give the reported CRE.
0.2 mg/dL

Quick one: CRE of CC(=O)Nc1ccc2c(c1)Cc1ccccc1-2 ?
0.5 mg/dL

I'd like to know its CRE. The molecule in question is CC(=O)N1CCN(c2ccc(OCC3COC(Cn4ccnc4)(c4ccc(Cl)cc4Cl)O3)cc2)CC1 (stereo not drawn)
0.2 mg/dL

---

Below, each entry is listed with its recorded DBIL.
Species on record: Rattus norvegicus
ASSAY: Open TG-GATES - Regimen: Single
Type: toxicity, organism-based, Sprague-Dawley
Design: regimen Single, gender Male, age 6 weeks
TEST_CONTEXT: in vivo, po, 0 mg/kg, 6 h, tissue Plasma, route gavage, dose level Control
The reply should contain only the number, in mg/dL.

Examples from the recorded data:
# COMPOUND, UNIT_LABEL, DBIL
rows = [
    ("CC(=O)N1CCN(c2ccc(OCC3COC(Cn4ccnc4)(c4ccc(Cl)cc4Cl)O3)cc2)CC1 (configuration not stated)", "mg/dL", 0),
    ("CC(C)Cc1ccc(C(C)C(=O)O)cc1 (configuration not stated)", "mg/dL", 0),
    ("CC(CCc1ccccc1)NCC(O)c1ccc(O)c(C(N)=O)c1 (configuration not stated)", "mg/dL", 0.004),
    ("CC[C@@H](CO)NCCN[C@@H](CC)CO", "mg/dL", 0),
    ("CCN(CC)N=O", "mg/dL", 0.076),
]

Data request, read-out DBIL, for CC(=O)Nc1ccc2c(c1)Cc1ccccc1-2
0.076

# query: DBIL of entry O=C(O)COc1nn(Cc2ccccc2)c2ccccc12
0.054

---

Species: Rattus norvegicus
ASSAY: Open TG-GATES - Regimen: Daily Repeat
Type: toxicity, organism-based, Sprague-Dawley
Set-up: regimen Daily Repeat, gender Male, age 6 weeks
TEST_CONTEXT: in vivo, po, 0 mg/kg, 72 h, tissue Blood, route gavage, dose level Control, time 3 day
We begin with a simple list: items and their reported PT.
I only need the number, in s, no unit after it.

# MOLECULE, UNIT_LABEL, PT
measured = [
    ("CCN(CC)N=O", "s", 12),
    ("CC(CCc1ccccc1)NCC(O)c1ccc(O)c(C(N)=O)c1 (configuration not stated)", "s", 12.8),
    ("O=C(O)COc1nn(Cc2ccccc2)c2ccccc12", "s", 11.6),
    ("CC(=O)Nc1ccc2c(c1)Cc1ccccc1-2", "s", 11.3),
    ("CC(=O)N1CCN(c2ccc(OCC3COC(Cn4ccnc4)(c4ccc(Cl)cc4Cl)O3)cc2)CC1 (configuration not stated)", "s", 16.5),
    ("CC[C@@H](CO)NCCN[C@@H](CC)CO", "s", 16.1),
]

// below: PT requested for another molecule
# PT lookup, item CC(C)Cc1ccc(C(C)C(=O)O)cc1 (configuration not stated)
15.5

This collection of values is drawn from ChEMBL document CHEMBL3885861.
